Source listed as ChEMBL document CHEMBL1201862.

- tgt: UniProtKB G5EF15
- Sequence (G5EF15 whole entry): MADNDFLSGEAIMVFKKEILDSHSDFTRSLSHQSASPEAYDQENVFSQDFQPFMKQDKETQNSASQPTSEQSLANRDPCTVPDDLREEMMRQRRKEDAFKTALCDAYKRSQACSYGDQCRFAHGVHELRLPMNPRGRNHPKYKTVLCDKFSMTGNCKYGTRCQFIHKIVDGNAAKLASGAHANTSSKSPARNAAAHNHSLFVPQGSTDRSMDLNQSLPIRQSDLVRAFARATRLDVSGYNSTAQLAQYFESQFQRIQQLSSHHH
- method_description: disruptors of C. elegans POS-1 RNA interaction – biochemical, fluorescence polarization, dose response (AID 1964);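 also: purified POS-1 fused to maltose binding protein made in E. coli; potency of compounds blocking POS-1 binding to fluorescent RNA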
The source made the active and inactive calls.
Collected EC50 values appear next to each entry.

Some solved cases for reference:
1) Oc1[nH]c2ccccc2c1N=Nc1ccccc1 | 7.37 µM (inconclusive)
2) COc1ccc(C2C(C#N)=C(N)OC3=C2C(=O)CC(C)(C)C3)c(OC)c1OC (stereo not given) | > 300 µM (not active)
3) N=C1NC(=O)/C(=C/c2ccc(-c3ccc(S(N)(=O)=O)cc3)o2)S1 | 31.9 µM (active)
4) O=[N+]([O-])c1ccc(/C=N/n2cnc3ccccc32)s1 | > 300 µM (inconclusive)

Continue with the next compound.
Task item: # get_value(readout='EC50', item= Cc1cccc(N2C(=O)/C(=C/c3ccc(CN(CCC#N)S(C)(=O)=O)o3)C(=O)NC2=S)c1 )
Reply: 67 µM (active)

----------
- method_description: NIH-3T3 fibroblast cytotoxicity, dose response, cytotoxicity control, cell-based, fluorescence, Alamar Blue, secondary assay (AID 2327);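 also: NIH-3T3 mouse fibroblasts cultured with fluconazole at 8 µg/mL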
- Type: functional
The source made the active and inactive calls.
Property: EC50; scope: individual molecules

1. Cc1c(Cl)ccc(S(=O)(=O)Nc2cccnc2)c1Cl | > 150 µM (inactive)
2. CCCCn1c(=O)[nH]c(=O)c2c1nc(-c1ccc(-c3ccccc3Br)o1)n2CC | > 150 µM (inconclusive)
3. CC(=O)Nc1ccc(N2CC(C)(C)C2=O)cc1 | 38.4 µM (active)

Task item: Reported EC50 for COc1cccc(C2C(C(=O)c3cc4ccccc4o3)=C(O)C(=O)N2c2cc(C)on2)c1OC (centres undefined) : what is it?
Reply: > 150 µM (inactive)

----------
- tgt: Corticotropin-releasing factor receptor 2/Corticotropin-releasing factor-binding protein (Homo sapiens, UniProt P24387+Q13324)
- Sequence (Q13324 whole entry): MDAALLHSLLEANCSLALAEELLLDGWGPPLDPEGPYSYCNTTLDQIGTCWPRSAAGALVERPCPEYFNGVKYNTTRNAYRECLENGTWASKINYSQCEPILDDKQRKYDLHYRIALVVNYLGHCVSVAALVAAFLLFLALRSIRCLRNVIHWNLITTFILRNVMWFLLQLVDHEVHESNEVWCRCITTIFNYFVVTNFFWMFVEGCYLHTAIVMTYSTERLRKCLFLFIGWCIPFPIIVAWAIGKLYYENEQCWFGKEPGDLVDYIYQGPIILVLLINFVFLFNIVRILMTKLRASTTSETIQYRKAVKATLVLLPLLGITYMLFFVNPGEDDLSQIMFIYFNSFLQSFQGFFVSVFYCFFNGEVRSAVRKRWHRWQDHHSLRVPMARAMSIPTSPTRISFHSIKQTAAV
- Sequence (P24387 whole entry): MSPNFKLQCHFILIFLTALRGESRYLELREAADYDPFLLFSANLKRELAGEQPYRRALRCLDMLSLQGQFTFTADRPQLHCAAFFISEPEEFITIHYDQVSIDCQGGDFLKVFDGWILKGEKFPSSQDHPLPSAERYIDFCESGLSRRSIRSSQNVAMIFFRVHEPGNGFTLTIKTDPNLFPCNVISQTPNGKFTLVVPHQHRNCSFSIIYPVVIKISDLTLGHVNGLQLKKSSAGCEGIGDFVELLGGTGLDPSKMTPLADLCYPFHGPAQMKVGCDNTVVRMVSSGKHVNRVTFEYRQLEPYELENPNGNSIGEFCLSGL
- method_description: Dose Response confirmation of uHTS hits for small molecule antagonists of the CRF-binding protein and CRF-R2 receptor complex.
- Assay type: functional
- condition_parameters: read-out: IC50_Mean
Active and inactive are the calls of the source.
Tick one outcome: active, inactive

Worked examples follow.
1) O=C(COC(=O)c1cnc(Cl)c(Cl)c1)NCCC1=CCCCC1 | active
2) CC(=O)Nc1ccc(NC(=O)C(C)OC(=O)C2CCCCC2)cc1 (stereo unspecified) | inactive
3) Brc1ccccc1-c1nnc(CSc2nnnn2-c2ccccc2)o1 | active
4) NC(=S)N/N=C/c1ccc(-c2ccc(SC(F)F)cc2)o1 | inactive
5) Cc1ccccc1Nc1scc(-c2ccc(Br)cc2)[n+]1-c1ccccc1C | inactive

Task item: What call does the record list for CCCN(C(=O)CSc1n[nH]c(-c2ccc(OC)cc2)n1)c1c(N)n(Cc2ccccc2)c(=O)[nH]c1=O ?
Reply: inactive

Task item: Lab log entry: COc1ccc(C2=NN(C)/C(=N\Cc3ccccc3)SC2)cc1 — outcome as called in the assay?
Reply: inactive

Task item: Write down the call the test reported for this compound. Item: Nc1cc(OC(=O)c2ccco2)nn1S(=O)(=O)c1ccc(F)cc1
Reply: active

Task item: Assay result, entry CN(C)c1c([N+](=O)[O-])ncn1C — outcome?
Reply: inactive

Task item: Which result was noted for this compound in the test: CC(C)CC(NC(=O)/C(=C/c1ccco1)NC(=O)c1ccc(Br)o1)C(=O)O (stereo unspecified)
Reply: inactive

Task item: Recorded call for CSc1ccc(/C=C/C(=O)N2CCN(c3ccccn3)CC2)cc1 ?
Reply: inactive
